Entries annotated with measured Sox17 Expression, % of positive control
Tested on: H1 human embryonic stem cells
Experiment: Compounds and growth factors with low dose activin A (Example 9, Table 9)
Format: cell-based
Settings: 10 ng/ml AA + compound + FGF4 + Wnt3a

In the examples that follow, each entry is paired with its recorded Sox17 Expression, % of positive control.
>  <Compound>
O=C1NCCCc2cncc(c2)-c2ncnc(n2)Nc2cc(Cl)cc(c2)CN2CCCC1C2 (stereo not drawn)

>  <Result>
−1.69 % of positive control

$$$$
>  <Compound>
CN1CCC(=O)NCCCNc2ncccc2-c2ncnc(n2)Nc2cccc(c2)C1

>  <Result>
−4.01 % of positive control

$$$$
>  <Compound>
CCN1CCCc2cccc(c2)-c2ncnc(n2)Nc2cccc(c2)CCNC(=O)C1

>  <Result>
6.10 % of positive control

$$$$
>  <Compound>
CCN1CC(=O)NCCCc2cncc(c2)-c2ncnc(n2)Nc2cc(Cl)cc(c2)C1

>  <Result>
−6.59 % of positive control

$$$$
>  <Compound>
O=C1CCN2CCN(CC2)Cc2cc(Cl)cc(c2)Nc2ncnc(n2)-c2cncc(c2)CCCN1

>  <Result>
196.86 % of positive control

$$$$

Next, consider the following compound.
Sample O=C1NCCCc2cncc(c2)-c2ncnc(n2)Nc2cccc(c2)CN2CCC1CC2 ; Sox17 Expression, % of positive control observed: 37.43 % of positive control

* * *

Cell Number, % of positive control values, listed per item
Test system: H1 human embryonic stem cells
Test: Compounds and growth factors with low dose activin A (Example 9, Table 9)
Assay type: cell-based
Settings: 10 ng/ml AA + compound + EGF + FGF4 + PDGF-AB + Wnt3a

A selection of reference data follows.
>  <Compound>
O=C1NCCCc2cncc(c2)-c2ncnc(n2)Nc2cc(Cl)cc(c2)CN2CCCC1C2 (stereo not drawn)

>  <Result>
55.20 % of positive control

$$$$
>  <Compound>
CCN1CCCc2cccc(c2)-c2ncnc(n2)Nc2cccc(c2)CCNC(=O)C1

>  <Result>
64.65 % of positive control

$$$$
>  <Compound>
O=C1CCN2CCN(CC2)Cc2cc(Cl)cc(c2)Nc2ncnc(n2)-c2cncc(c2)CCCN1

>  <Result>
233.65 % of positive control

$$$$
>  <Compound>
O=C1NCCCc2cncc(c2)-c2ncnc(n2)Nc2cccc(c2)CN2CCC1CC2

>  <Result>
130.06 % of positive control

$$$$
>  <Compound>
CCN1CC(=O)NCCCc2cncc(c2)-c2ncnc(n2)Nc2cc(Cl)cc(c2)C1

>  <Result>
53.21 % of positive control

$$$$

Per the reported H1 human embryonic stem cells data, CN1CCC(=O)NCCCNc2ncccc2-c2ncnc(n2)Nc2cccc(c2)C1 has Cell Number, % of positive control of 39.07 % of positive control

* * *

Tested on: H1 human embryonic stem cells
Assay: Compounds and growth factors with low dose activin A (Example 9, Table 9)
Format: cell-based
Details: 10 ng/ml AA + compound + EGF + FGF4 + PDGF-AB + VEGF + Wnt3a
Measurement Label: Cell Number, Average Total Cell Number
Response field accepts a number only; no unit should be typed.

Reference set (5 entries):
>  <Compound>
O=C1NCCCc2cncc(c2)-c2ncnc(n2)Nc2cc(Cl)cc(c2)CN2CCCC1C2 (stereo not drawn)

>  <Measurement Label>
Cell Number, Average Total Cell Number

>  <Number>
4767

$$$$
>  <Compound>
O=C1CCN2CCN(CC2)Cc2cc(Cl)cc(c2)Nc2ncnc(n2)-c2cncc(c2)CCCN1

>  <Measurement Label>
Cell Number, Average Total Cell Number

>  <Number>
15574

$$$$
>  <Compound>
CCN1CCCc2cccc(c2)-c2ncnc(n2)Nc2cccc(c2)CCNC(=O)C1

>  <Measurement Label>
Cell Number, Average Total Cell Number

>  <Number>
2283

$$$$
>  <Compound>
CCN1CC(=O)NCCCc2cncc(c2)-c2ncnc(n2)Nc2cc(Cl)cc(c2)C1

>  <Measurement Label>
Cell Number, Average Total Cell Number

>  <Number>
3479

$$$$
>  <Compound>
O=C1NCCCc2cncc(c2)-c2ncnc(n2)Nc2cccc(c2)CN2CCC1CC2

>  <Measurement Label>
Cell Number, Average Total Cell Number

>  <Number>
7657

$$$$

The compound CN1CCC(=O)NCCCNc2ncccc2-c2ncnc(n2)Nc2cccc(c2)C1 showed Cell Number, Average Total Cell Number equal to 2531

Values compiled from patent US9593305B2.
